This collection of values is drawn from patent US20240225971A1.

# experimental_protocol: Flash point of fragrance ingredients
# Assay type: physicochemical
endpoint_name: Flash Point (°C)
Express it in °C; write the number only.

compound	Flash Point (°C)
CCCCCCCCCC=O	82
CC1CC=CCCCCCCCCCC(=O)C1 (stereo not drawn)	100
CC/C=C\CCO [Cis-3-Hexenol]	44
CCCCCCCCCC(C)C=O (stereo not drawn)	69
C=CC(C)(CCC=C(C)C)OC(C)=O (stereo not drawn) [Linalyl Acetate]	94

Then this compound:
Q: Tell me the measured Flash Point of CC/C=C\CCOC(=O)c1ccccc1O [Cis-3-Hexenyl Salicylate] , please.
Ans: 110

* * *

# experimental_protocol: Water solubility at 25° C. of fragrance ingredients
# measurement_context: 25° C.
endpoint_name: Water Solubility (µg/mL)
Numeric only. Scale: µg/mL

molecule	Water Solubility / µg/mL
CCCc1ccc(O)c(OC)c1 [Dihydro Eugenol]	228.000

Q: Could you share which Water Solubility value was measured for CCC(CC)C(=O)N(C)c1cccc(C)c1 [Paradisamide] ?
Ans: 46.430

Q: Data request, read-out Water Solubility, for CC(=O)OCCC(C)C [Isoamyl Acetate]
Ans: 2000.000

Q: Item C=CCOC(=O)COCCC(C)C [Allyl Amyl Glycolate] has what recorded Water Solubility?
Ans: 510.700

* * *

# experimental_protocol: Flash point of fragrance ingredients
# Format: physicochemical
The label y is reserved for Flash Point strictly under 90 °C; n covers values equal to or above it.

Completed entries (count: 9):
compound	class_assignment
COc1ccc(C=O)cc1	n
CCCCCC1C(=O)CCC1CC(=O)OC (stereo not shown)	n
C=CCOC(=O)COCCC(C)C [Allyl Amyl Glycolate]	n
C=CCCCCCCCCC=O	y
COc1ccc(COC(C)=O)cc1 [Anisyl Acetate]	n
CC(=O)OCCC(C)C [Isoamyl Acetate]	y
c1ccc(COCc2ccccc2)cc1	n
CCOc1cc(C=O)ccc1O	n
C=CC(C)(O)CCC=C(C)C (stereo not shown)	y

Consider the record given below.
Q: Find out if reported Flash Point for CC1=CC(C)C(C=O)CC1 (stereo not shown) is less than 90 °C
Ans: y
